The measured values listed here are drawn from PubChem BioAssay (NCI).

- Tested on: HCT-116 colon
- method-description: NCI-60 one-dose screen, 48 h (100 = growth as untreated, 0 = no growth, -100 = all killed)
- condition-summary: 10 µM
The panel holds about 83,000 compounds, 20% with a hit somewhere; the sample as a whole holds those more often. The source made the active and inactive calls. The calls were made as follows: active = growth percent below 10; inactive = the rest.
assay-metric: growth

Request: Consider the molecule c1ccc([I+]c2ccccc2)cc1 . State its measured growth.
Response: 31% (inactive)

Request: Specify measured growth for COc1cc(-c2cc(/C=C3\C(=O)Nc4ccc(Cl)cc43)[nH]n2)cc(OC)c1OC .
Response: 4.26% (active)

Request: Give growth for the following molecule: COc1ccc(Cn2c(C(N)=O)cc3c2-c2nc(N)ncc2CCC3)cc1
Response: 101% (inactive)

Request: Write down growth measured for item ClCC#CCSc1ncnc2c1ncn2CC#CCCl
Response: -49% (active)

Request: Answer with reported growth of Cc1ccc(Nc2cc(C)nc(NCCCNc3ccnc4cc(Cl)ccc34)n2)cc1
Response: -100% (active)

Request: Return value of growth for input Cn1c([N+](=O)[O-])cnc1/C=C1\Oc2ccccc2C1=O , no commentary.
Response: 1.88% (active)
